assay: Lipophilicity, log P of the compound; assay type: physicochemical; conditions: octanol/water
logP: recorded values

| structure_as_smiles | logP |
| --- | --- |
| COc1ccc2c3c1O[C@H]1C[C@@H](O)C=C[C@@]31CCN(CCCCCNC13CC4CC(C)(CC(C)(C4)C1)C3)C2 | 4.46 |
| COc1ccc2c3c1O[C@H]1C[C@@H](O)C=C[C@@]31CCN(CCCCCCCNC13CC4CC(C)(CC(C)(C4)C1)C3)C2 | 5.42 |
| COc1ccc2c3c1O[C@H]1C[C@@H](O)C=C[C@@]31CCN(CCCCCCCCNC13CC4CC(C)(CC(C)(C4)C1)C3)C2 | 5.9 |
| COc1ccc2c3c1O[C@H]1C[C@@H](O)C=C[C@@]31CCN(CCCCCCCCCNC13CC4CC(C)(CC(C)(C4)C1)C3)C2 | 6.38 |
| COc1ccc2c3c1O[C@H]1C[C@@H](O)C=C[C@@]31CCN(CCCCNC13CC4CC(C)(CC(C)(C4)C1)C3)C2 | 3.98 |
| COc1ccc2c3c1O[C@H]1C[C@@H](O)C=C[C@@]31CCN(CCCCCCNC13CC4CC(C)(CC(C)(C4)C1)C3)C2 | 4.94 |

---

// values below are pKi; system is Glutamate receptor ionotropic, NMDA 2B (Rattus norvegicus)
Sequence (Q00960 whole entry): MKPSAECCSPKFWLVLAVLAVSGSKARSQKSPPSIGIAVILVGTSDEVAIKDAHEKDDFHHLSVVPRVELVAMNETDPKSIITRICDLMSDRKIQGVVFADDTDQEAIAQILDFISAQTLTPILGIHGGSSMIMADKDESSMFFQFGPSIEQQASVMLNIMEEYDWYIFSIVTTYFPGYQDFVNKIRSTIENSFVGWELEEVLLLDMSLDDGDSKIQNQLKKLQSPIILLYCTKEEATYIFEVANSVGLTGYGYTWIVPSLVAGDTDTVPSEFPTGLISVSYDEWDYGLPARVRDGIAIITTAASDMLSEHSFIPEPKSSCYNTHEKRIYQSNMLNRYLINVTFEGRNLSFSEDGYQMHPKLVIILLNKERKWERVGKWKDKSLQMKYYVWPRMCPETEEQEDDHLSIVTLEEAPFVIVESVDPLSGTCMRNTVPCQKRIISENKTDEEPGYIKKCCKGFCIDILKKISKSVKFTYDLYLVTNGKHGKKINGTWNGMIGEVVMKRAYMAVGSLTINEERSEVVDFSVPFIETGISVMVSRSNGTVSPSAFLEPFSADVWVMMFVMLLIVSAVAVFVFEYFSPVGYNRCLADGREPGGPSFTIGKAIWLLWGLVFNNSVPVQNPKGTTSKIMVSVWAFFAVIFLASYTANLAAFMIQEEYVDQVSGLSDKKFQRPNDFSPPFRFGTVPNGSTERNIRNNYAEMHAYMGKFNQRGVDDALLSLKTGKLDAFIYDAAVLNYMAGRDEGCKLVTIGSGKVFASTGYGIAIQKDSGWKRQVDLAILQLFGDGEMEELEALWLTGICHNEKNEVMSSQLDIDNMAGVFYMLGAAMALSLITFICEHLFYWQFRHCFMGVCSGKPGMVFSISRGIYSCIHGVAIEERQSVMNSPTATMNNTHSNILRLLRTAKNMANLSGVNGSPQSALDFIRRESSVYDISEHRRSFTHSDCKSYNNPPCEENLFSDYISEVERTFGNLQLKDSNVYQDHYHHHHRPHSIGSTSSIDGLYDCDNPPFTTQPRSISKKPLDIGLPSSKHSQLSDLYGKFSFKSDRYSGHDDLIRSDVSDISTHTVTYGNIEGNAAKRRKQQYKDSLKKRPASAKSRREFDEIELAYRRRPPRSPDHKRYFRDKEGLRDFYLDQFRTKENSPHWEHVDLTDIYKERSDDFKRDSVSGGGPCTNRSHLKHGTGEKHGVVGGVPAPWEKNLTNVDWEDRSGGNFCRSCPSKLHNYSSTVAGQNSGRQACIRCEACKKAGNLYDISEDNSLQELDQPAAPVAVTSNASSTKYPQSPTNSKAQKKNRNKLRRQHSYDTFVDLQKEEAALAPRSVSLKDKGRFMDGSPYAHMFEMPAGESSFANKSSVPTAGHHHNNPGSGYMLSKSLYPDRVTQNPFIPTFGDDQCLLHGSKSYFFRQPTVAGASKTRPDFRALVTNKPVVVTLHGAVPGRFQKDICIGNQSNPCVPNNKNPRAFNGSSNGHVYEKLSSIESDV
pKi: −log10 of the molar value.
property: pKi

| structure_as_smiles | property | readout_qualifier | result_value |
| --- | --- | --- | --- |
| COc1ccc2c3c1O[C@H]1C[C@@H](O)C=C[C@@]31CCN(CCCCCNC13CC4CC(C)(CC(C)(C4)C1)C3)C2 | pKi | = | 4.39 |
| COc1ccc2c3c1O[C@H]1C[C@@H](O)C=C[C@@]31CCN(CCCNCCCNC13CC4CC(C)(CC(C)(C4)C1)C3)C2 | pKi | = | 5.48 |
| COc1ccc2c3c1O[C@H]1C[C@@H](O)C=C[C@@]31CCN(CCCC(=O)NC13CC4CC(C)(CC(C)(C4)C1)C3)C2 | pKi | < | 4.00 |
| COc1ccc2c3c1O[C@H]1C[C@@H](O)C=C[C@@]31CCN(CCCCCCN(C)C13CC4CC(C)(CC(C)(C4)C1)C3)C2 | pKi | = | 5.28 |
| COc1ccc2c3c1O[C@H]1C[C@@H](O)C=C[C@@]31CCN(CCCCCCCN(C)C13CC4CC(C)(CC(C)(C4)C1)C3)C2 | pKi | < | 4.00 |
| COc1ccc2c3c1O[C@H]1C[C@@H](O)C=C[C@@]31CCN(CCCCCCCCNC13CC4CC(C)(CC(C)(C4)C1)C3)C2 | pKi | = | 5.54 |

---

// values below are IC50; system is Acetylcholinesterase (Rattus norvegicus, UniProt P37136)
Sequence (P37136 whole entry): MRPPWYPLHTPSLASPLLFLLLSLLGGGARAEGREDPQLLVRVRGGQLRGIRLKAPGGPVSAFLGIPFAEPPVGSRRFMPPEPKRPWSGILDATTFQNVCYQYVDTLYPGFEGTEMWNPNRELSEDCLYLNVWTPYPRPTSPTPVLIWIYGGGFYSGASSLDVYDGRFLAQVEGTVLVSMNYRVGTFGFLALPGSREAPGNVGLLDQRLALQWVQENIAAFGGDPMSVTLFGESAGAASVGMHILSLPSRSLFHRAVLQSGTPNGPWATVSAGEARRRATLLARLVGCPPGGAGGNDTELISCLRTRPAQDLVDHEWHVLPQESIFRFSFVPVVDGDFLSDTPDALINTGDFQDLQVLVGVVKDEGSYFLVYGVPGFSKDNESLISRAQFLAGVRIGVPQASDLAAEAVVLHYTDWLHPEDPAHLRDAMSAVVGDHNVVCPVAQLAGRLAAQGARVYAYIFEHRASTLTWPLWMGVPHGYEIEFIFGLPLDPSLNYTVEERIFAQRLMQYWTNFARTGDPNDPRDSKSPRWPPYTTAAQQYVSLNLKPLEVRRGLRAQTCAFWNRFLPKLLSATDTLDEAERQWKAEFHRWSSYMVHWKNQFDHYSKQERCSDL
property: IC50 (nM)

| structure_as_smiles | result_value |
| --- | --- |
| COc1ccc2c3c1O[C@H]1C[C@@H](O)C=C[C@@]31CCN(CCOCCNC13CC4CC(C)(CC(C)(C4)C1)C3)C2 | 3920 |
| COc1ccc2c3c1O[C@H]1C[C@@H](O)C=C[C@@]31CCN(CCCCCCNC13CC4CC(C)(CC(C)(C4)C1)C3)C2 | 1.16 |
| COc1ccc2c3c1O[C@H]1C[C@@H](O)C=C[C@@]31CCN(CCCCCCCCCNC13CC4CC(C)(CC(C)(C4)C1)C3)C2 | 2.32 |
| COc1ccc2c3c1O[C@H]1C[C@@H](O)C=C[C@@]31CCN(CCCCCCCN(C)C13CC4CC(C)(CC(C)(C4)C1)C3)C2 | 1.33 |
| COc1ccc2c3c1O[C@H]1C[C@@H](O)C=C[C@@]31CCN(CCCCCCCCN(C)C13CC4CC(C)(CC(C)(C4)C1)C3)C2 | 0.52 |
| COc1ccc2c3c1O[C@H]1C[C@@H](O)C=C[C@@]31CCN(CCOCCOCCNC13CC4CC(C)(CC(C)(C4)C1)C3)C2 | 80.9 |
| COc1ccc2c3c1O[C@H]1C[C@@H](O)C=C[C@@]31CCN(CCSCCNC13CC4CC(C)(CC(C)(C4)C1)C3)C2 | 131 |
